B1: VH:VL chains; a variant is named by its letters at X, in order (parent)
chain 1: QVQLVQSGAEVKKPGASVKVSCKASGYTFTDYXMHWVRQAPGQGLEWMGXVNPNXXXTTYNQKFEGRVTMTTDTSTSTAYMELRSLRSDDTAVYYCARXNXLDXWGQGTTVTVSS
chain 2: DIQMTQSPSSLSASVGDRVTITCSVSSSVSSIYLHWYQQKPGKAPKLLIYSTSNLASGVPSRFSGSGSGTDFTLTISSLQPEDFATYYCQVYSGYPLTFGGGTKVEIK

variants of: B1; assay: yeast display scFab, FACS + sequencing
measure name: non-specific binding call

1) DGGENAGD | no binding
2) VKAGDSSS | no binding
3) SRGKGALD | binds
4) SRTGSDVD | no binding
5) VKARGAGV | binds
6) YRGASSWV | binds
7) YRRRGVAA | binds
8) VKRGSAAA | binds
9) SEEGTAGD | no binding
10) YRRGGASD | binds
11) SERRSSAF | no binding
